Let's look at some molecules and their measured inhibition in vivo at 10 mg/kg.
tested on: Rattus norvegicus; assay: Antihypertensive activity in Norwegian albino rat assessed as inhibition of DOCA salt-induced diastolic blood pressure at 10 mg/kg, po after 30 mins by invasive carotid artery cannulation method; type: functional; conditions: 0.5 h
I only need the number, in %, no unit after it.

Consider the worked cases shown below.
| molecule | inhibition in vivo at 10 mg/kg / % |
| --- | --- |
| CCOC(=O)C1=C(C)NC(OC)N(CC(=O)c2ccc(OC)cc2)C1c1ccc(OC)cc1 (stereo unspecified) | 12.1 |
| CCOC(=O)C1=C(C)NC(OC)N(CC(=O)c2ccccc2)C1c1ccc(C)cc1 (stereo unspecified) | 9.79 |
| CCOC(=O)C1=C(C)NC(OC)N(CC(=O)c2ccc(Cl)cc2)C1c1ccc(Cl)cc1 (stereo unspecified) | 8.92 |
| CCOC(=O)C1=C(C)NC(OC)N(CC(=O)c2ccc(Cl)cc2)C1c1ccc(OC)cc1 (stereo unspecified) | 10.1 |
| CCOC(=O)C1=C(C)NC(OC)N(CC(=O)c2ccc(Cl)cc2)C1c1ccccc1 (stereo unspecified) | 9.99 |

// next entry
Look at this molecule and give its reported inhibition in vivo at 10 mg/kg. CCOC(=O)C1=C(C)NC(OC)N(CC(=O)c2ccccc2)C1c1ccc(OC)cc1 (stereo unspecified)
10.6

----------
system: Rattus norvegicus; assay: Antihypertensive activity in Norwegian albino rat assessed as inhibition of DOCA salt-induced systolic blood pressure at 10 mg/kg, po after 15 mins by non-invasive tail-cuff method; format: functional; conditions: Artery, 0.25 h
Respond with y for inhibition in vivo at 10 mg/kg values of 1% and above, n for values below.

Reference set (5 entries):
| molecule | class |
| --- | --- |
| CCOC(=O)C1=C(C)NC(OC)N(CC(=O)c2ccc(Cl)cc2)C1c1ccc(C)cc1 (stereo unspecified) | y |
| CCOC(=O)C1=C(C)NC(OC)N(CC(=O)c2ccc(Cl)cc2)C1c1ccccc1 (stereo unspecified) | n |
| CCOC(=O)C1=C(C)NC(OC)N(CC(=O)c2ccccc2)C1c1ccccc1 (stereo unspecified) | n |
| COC(=O)C1=C(C)NC(C)=C(C(=O)OC)C1c1ccccc1[N+](=O)[O-] | y |
| CCOC(=O)C1=C(C)NC(OC)N(CC(=O)c2ccccc2)C1c1ccc(C)cc1 (stereo unspecified) | n |

I'd appreciate it if you could say whether CCOC(=O)C1=C(C)NC(OC)N(CC(=O)c2ccccc2)C1c1ccc(OC)cc1 (stereo unspecified) has inhibition in vivo at 10 mg/kg at least equal to 1%.
y

----------
test system: Rattus norvegicus; test: Antihypertensive activity in Norwegian albino rat assessed as inhibition of DOCA salt-induced diastolic blood pressure at 10 mg/kg, po after 30 mins by invasive carotid artery cannulation method; type: functional; conditions: 0.5 h
readout-kind: inhibition in vivo at 10 mg/kg (%)
I only need the number, in %, no unit after it.

Consider the worked cases shown below.
| compound | measured-result |
| --- | --- |
| CCOC(=O)C1=C(C)NC(OC)N(CC(=O)c2ccc(OC)cc2)C1c1ccc(C)cc1 (stereo not given) | 11.5 |
| CCOC(=O)C1=C(C)NC(OC)N(CC(=O)c2ccc(Cl)cc2)C1c1ccc(C)cc1 (stereo not given) | 10.5 |
| COC(=O)C1=C(C)NC(C)=C(C(=O)OC)C1c1ccccc1[N+](=O)[O-] | 11.7 |
| CCOC(=O)C1=C(C)NC(OC)N(CC(=O)c2ccc(Cl)cc2)C1c1ccc(O)cc1 (stereo not given) | 10.3 |

Look at this compound and give its reported inhibition in vivo at 10 mg/kg. CCOC(=O)C1=C(C)NC(OC)N(CC(=O)c2ccc(OC)cc2)C1c1ccccc1 (stereo not given)
8.97

The values you see were collected from ChEMBL document CHEMBL1153580.
